// values below are reported cell viability
- Tested on: MARIMO
- EXPERIMENT DESCRIPTION: cell viability relative to vehicle control; higher = less cytotoxic;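 further: after 48 h exposure read by CellTiter-Glo luminescence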
- ASSAY CONTEXT: 10 µM; SRSF2 genotype: SRSF2 P95H/wt
Structures can show the parent of a compound that is named as a salt.
PROPERTY MEASURED: cell viability (%)

>>> recorded_value("CNCC(=O)c1ccc(O)c(O)c1 [Adrenalone HCl]")
91.8
>>> recorded_value("O=C1C2CCN(CC2)C1(CO)CO")
83.6
>>> recorded_value("COC(=O)c1ccccc1C(=O)OC [Dimethyl phthalate]")
85.6
>>> recorded_value("CCOC(=O)Nc1ccc(NCc2ccc(F)cc2)cc1N [Retigabine 2HCl]")
91.6
>>> recorded_value("O=P1(NCCCl)OCCCN1CCCl (stereo unspecified) [Ifosfamide]")
105
>>> recorded_value("O=S(=O)(F)Cc1ccccc1 [PMSF (Phenylmethylsulfonyl Fluoride)]")
100

* * *

Each record here notes measured cell viability.
- Tested on: OCI-AML2
- EXPERIMENT DESCRIPTION: cell viability relative to vehicle control; higher = less cytotoxic
- ASSAY CONTEXT: 10 µM; SRSF2 genotype: P95H/wt
Structures can show the parent of a compound that is named as a salt.
PROPERTY MEASURED: cell viability (%)

>>> recorded_value("COc1cc(C(=O)O)cc(OC)c1OC")
99.2
>>> recorded_value("CN1CC=C(c2ccccc2)CC1 [MPTP hydrochloride]")
92.5
>>> recorded_value("COc1ccc(C=O)cc1O")
104
>>> recorded_value("NCC(CC(=O)O)c1ccccc1 (stereo not given)")
96.7
>>> recorded_value("CC1C(=O)OC2C(O)C34C5OC(=O)C3(OC3OC(=O)C(O)C34C(C(C)(C)C)C5O)C12O (stereo not given) [Ginkgolide C]")
102

* * *

- System: MARIMO
- EXPERIMENT DESCRIPTION: cell viability relative to vehicle control; higher = less cytotoxic
- ASSAY CONTEXT: 10 µM; SRSF2 genotype: SRSF2 wt/wt
Where a name gives a salt, the structure may show the parent alone.
As shown below, each of these compounds has a reported cell viability value.
PROPERTY MEASURED: cell viability (%)

>>> recorded_value("COC1=C[C@@H]2[C@@H]3Cc4ccc(OC)c(O)c4[C@]2(CCN3C)CC1=O [Sinomenine hydrochloride]")
101
>>> recorded_value("C=C[C@H]1CN2CC[C@]3(C(=O)Nc4ccccc43)[C@@H]2C[C@@H]1/C(=C\\OC)C(=O)OC")
81.1
>>> recorded_value("Cl[TeH]1(Cl)(Cl)OCCO1.N")
83.5
>>> recorded_value("CCOC(=O)Nc1ccc(NCc2ccc(F)cc2)cc1N")
110
>>> recorded_value("COc1ccc2c(c1OC)CN1CCc3cc4c(cc3C1C2)OCO4 (stereo not given) [Tetrahydroberberine]")
85

* * *

- Test system: K562
- EXPERIMENT DESCRIPTION: cell viability relative to vehicle control; higher = less cytotoxic
- ASSAY CONTEXT: 10 µM; SRSF2 genotype: SRSF2 wt/wt
Where a name gives a salt, the structure may show the parent alone.
PROPERTY MEASURED: cell viability (%)

>>> recorded_value("CC1=C[C@H]2Cc3[nH]c(=O)ccc3[C@]3(C1)NCCC[C@H]23 [Huperzine B]")
113
>>> recorded_value("COc1ccc(C[C@H]2NC[C@H](O)[C@H]2OC(C)=O)cc1 [Anisomycin]")
7.54
>>> recorded_value("C/C=C(\\C)C(=O)N[C@@H](c1ccccc1)[C@@H](O)C(=O)O[C@H]1C[C@@]2(O)[C@@H](OC(=O)c3ccccc3)[C@@H]3[C@]4(OC(C)=O)CO[C@@H]4C[C@H](O)[C@@]3(C)C(=O)[C@H](OC(C)=O)C(=C1C)C2(C)C [Cephalomannine]")
31
>>> recorded_value("CC(C)C(Br)C(=O)NC(N)=O (stereo unspecified) [Bromisoval]")
94.8
>>> recorded_value("Cc1c(N)nc(C(CC(N)=O)NCC(N)C(N)=O)nc1C(=O)NC(C(=O)NC(C)C(O)C(C)C(=O)NC(C(=O)NCCc1nc(-c2nc(C(=O)NCCC[S+](C)C)cs2)cs1)C(C)O)C(O[C@@H]1O[C@@H](CO)[C@@H](O)[C@H](O)[C@@H]1O[C@H]1O[C@H](CO)[C@@H](O)[C@H](OC(N)=O)[C@@H]1O)c1cnc[nH]1 (stereo partly specified) [Bleomycin sulfate]")
69.7
>>> recorded_value("COC1=C[C@@H]2[C@@H]3Cc4ccc(OC)c(O)c4[C@]2(CCN3C)CC1=O [Sinomenine (Cucoline)]")
90.5
>>> recorded_value("CN1[C@@H]2CC[C@H]1C[C@@H](OC(=O)[C@H](CO)c1ccccc1)C2 [Hyoscyamine (Daturine)]")
91.9
>>> recorded_value("Cc1sc2c(c1C)C(c1ccc(Cl)cc1)=NC(CC(N)=O)c1nnc(C)n1-2 (stereo unspecified)")
69.8
>>> recorded_value("c1cc2c(cc1[C@H]1OC[C@H]3[C@@H]1CO[C@@H]3c1ccc3c(c1)OCO3)OCO2 [Sesamin (Fagarol)]")
97.3
>>> recorded_value("CCC12C=CCN3CC[C@@]4(c5ccc(OC)cc5N(C)[C@H]4[C@@](O)(C(=O)OC)[C@@H]1OC(C)=O)[C@@H]32 (stereo partly specified) [Vindoline]")
99.4
>>> recorded_value("C=CCCCCCCCCC(=O)O[C@H]1CC[C@H]2[C@@H]3CCC4=CC(=O)C=C[C@]4(C)[C@H]3CC[C@]12C [Boldenone Undecylenate]")
95.7
>>> recorded_value("COc1cc(C(=O)O)cc(OC)c1OC [Gallic acid trimethyl ether]")
101
>>> recorded_value("OC(CNc1ccccc1)Cn1c2ccc(Br)cc2c2cc(Br)ccc21 (stereo unspecified)")
66.2
>>> recorded_value("OC(c1ccccc1)(c1ccccc1)C1CCNCC1 [Azacyclonol]")
95.1
>>> recorded_value("COC(=O)c1ccccc1C(=O)OC [Dimethyl phthalate]")
84
>>> recorded_value("COC1CC(OC2CCC3(C)C(CCC45OC46CCC(C(C)=O)C6(C)C(OC(C)=O)C(OC(=O)c4ccccc4)C35)C2)OC(C)C1OC1OC(C)C(O)C(OC)C1O (stereo unspecified) [Tenacissoside I]")
93.8
>>> recorded_value("CN1CC=C(c2ccccc2)CC1 [MPTP hydrochloride]")
102
>>> recorded_value("CN(C)Cc1c[nH]c2ccccc12 [Gramine]")
100
>>> recorded_value("c1csc(-c2ccc(-c3cccs3)s2)c1 [2,2':5',2''-Terthiophene]")
97.1
>>> recorded_value("NC(=O)CN1CCCC1=O [Piracetam]")
98.7
>>> recorded_value("O=c1[nH]c2ccccc2n1C1CCN(Cc2ccc(-c3[nH]c4cc5ncnc5cc4nc3-c3ccccc3)cc2)CC1")
61.7
>>> recorded_value("COc1ccc2c(c1OC)CN1CCc3cc4c(cc3C1C2)OCO4 (stereo unspecified) [Tetrahydroberberine]")
81.9
>>> recorded_value("C=C[C@]12CN(C)[C@@H]3[C@H]4CO[C@H](C[C@H]41)[C@]1(C(=O)Nc4ccccc41)[C@@H]32 [Gelsemine]")
87.9
>>> recorded_value("C=C[C@H]1CN2CC[C@]3(C(=O)Nc4ccccc43)[C@@H]2C[C@@H]1/C(=C\\OC)C(=O)OC [Corynoxeine]")
97.7
>>> recorded_value("O=C([O-])C(Cl)Cl.[Na+] [Sodium dichloroacetate (DCA)]")
97.6
>>> recorded_value("CC(=O)O[C@H]1C(=O)[C@@]2(C)[C@H]([C@H](OC(=O)c3ccccc3)[C@]3(O)C[C@H](O)C(C)=C1C3(C)C)[C@]1(OC(C)=O)CO[C@@H]1C[C@@H]2O")
102
>>> recorded_value("c1ccc2c(c1)[I+]c1ccccc1-2 [Diphenyleneiodonium chloride (DPI)]")
25
>>> recorded_value("C/C(O)=C(\\C#N)C(=O)Nc1cc(Br)ccc1Br")
89.1
>>> recorded_value("CN(C)[C@@H]1C(=O)C(C(N)=O)=C(O)[C@@]2(O)C(=O)C3=C(O)c4c(O)cccc4[C@@](C)(O)[C@H]3[C@H](O)[C@@H]12 [Oxytetracycline dihydrate]")
101
>>> recorded_value("Nc1nc(N)nc(N)n1 [Melamine]")
90
>>> recorded_value("COc1cc(-n2c(=S)[nH]c3ccccc3c2=O)c(Cl)cc1Cl [Mdivi-1]")
94.2

* * *

- Test system: OCI-AML2
- EXPERIMENT DESCRIPTION: cell viability relative to vehicle control; higher = less cytotoxic
- ASSAY CONTEXT: 10 µM; SRSF2 genotype: P95H/wt
Where a name gives a salt, the structure may show the parent alone.
Rule: measured cell viability below 90% gets 1; anything equal to or greater than 90% gets 0.

>>> class_label("CN1C(=O)COc2c(C(=O)NC3CN4CCC3CC4)cc(Cl)cc21 (stereo not drawn) [Azasetron HCl]")
0
>>> class_label("C=C1[C@H]2C[C@@]3([C@@H]1O)[C@@H](CC2=O)[C@]12[C@@H]4C[C@H]3[C@H]1N(CC)C[C@]4(C)CC[C@@H]2O [Songorine]")
0
>>> class_label("CCC1CN2CCC3(C(=O)Nc4ccccc43)C2CC1C(=COC)C(=O)OC (stereo not drawn) [Isorhychophylline]")
0
>>> class_label("CCN(C)C(=O)Oc1cccc([C@H](C)N(C)C)c1 [Rivastigmine tartrate (Exelon)]")
0
>>> class_label("COc1cc2c(cc1O)CC1NCCc3cc(OC)c(O)c-2c31 (stereo not drawn) [Norisoboldine]")
0
>>> class_label("CC(=O)O[C@H]1CC[C@H]2[C@@H]3CCC4=CC(=O)CCC4=C3C=C[C@]12C [Trenbolone acetate]")
0
>>> class_label("N#CC(C#N)=NNc1ccc(OC(F)(F)F)cc1")
1
>>> class_label("CNCC(O)c1ccc(O)cc1 (stereo not drawn) [Synephrine HCl]")
0
>>> class_label("COc1ccc2c(c1OC)CN1CCc3cc4c(cc3C1C2)OCO4 (stereo not drawn) [Tetrahydroberberine]")
1
>>> class_label("CCN1CC2(OC(=O)c3ccccc3NC(C)=O)CCC(OC)C34C1C(CC23)C1(O)CC(OC)C2CC4C1(O)C2OC (stereo not drawn) [Lappaconitine]")
0
>>> class_label("CCC12C=CCN3CC[C@@]4(c5ccc(OC)cc5N(C)[C@H]4[C@@](O)(C(=O)OC)[C@@H]1OC(C)=O)[C@@H]32 (stereo partly drawn) [Vindoline]")
0
>>> class_label("O=C(O)C(=O)c1cn(Cc2ccccc2)c2ccc(-c3ccc(OC(F)(F)F)cc3)cc12 [Tiplaxtinin (PAI-039)]")
0
>>> class_label("CCCCCCC(=O)O[C@H]1CC[C@H]2[C@@H]3CCC4=CC(=O)CC[C@]4(C)[C@H]3CC[C@]12C [Testosterone Enanthate]")
1
>>> class_label("Nc1ncnc2c1ccn2[C@@H]1O[C@H]([C@H](O)c2ccccc2)[C@@H](O)[C@H]1O")
1
>>> class_label("O=C(CBr)c1ccc(O)cc1 [PTP Inhibitor I]")
0
>>> class_label("CC(C)N(CCNC(=O)CN1CCCC1=O)C(C)C [Pramiracetam]")
0
>>> class_label("O=C1CC[C@@]2(O)[C@H]3Cc4ccc(O)c5c4[C@@]2(CCN3CC2CC2)[C@H]1O5 [Naltrexone HCl]")
0
>>> class_label("O=C(CBr)N1CC([N+](=O)[O-])([N+](=O)[O-])C1")
0
>>> class_label("CN1CCc2cc3c(cc2C1C1OC(=O)c2c1ccc1c2OCO1)OCO3 (single isomer, unassigned; (+)) [(+)-Bicuculline]")
0
>>> class_label("O=C1C2CCN(CC2)C1(CO)CO")
1
>>> class_label("O=S(=O)(F)Cc1ccccc1 [PMSF (Phenylmethylsulfonyl Fluoride)]")
0
>>> class_label("CC(C)[C@]12O[C@H]1[C@@H]1O[C@]13[C@]1(O[C@H]1C[C@H]1C4=C(CC[C@@]13C)C(=O)OC4)[C@@H]2O [Triptolide]")
1
>>> class_label("C=C1CCC2C(/C=C(\\C)C(=O)C3(OC(C)=O)CC(C)C(OC(=O)c4ccccc4)C3C1OC(C)=O)C2(C)C (stereo not drawn) [Euphorbia factor L3]")
1
>>> class_label("CC1=C2C(=O)[C@H]3[C@@H](CC=C4C[C@@H](O)CC[C@@]43C)[C@@H]2CC[C@]12O[C@@H]1C[C@H](C)CN[C@H]1[C@H]2C [Jervine]")
0
>>> class_label("CN1[C@@H]2C[C@@H](OC(=O)[C@H](CO)c3ccccc3)C[C@H]1[C@@H]1O[C@@H]12 [Scopolamine hydrobromide]")
0
>>> class_label("C/C(O)=C(\\C#N)C(=O)Nc1cc(Br)ccc1Br")
1
>>> class_label("C[C@]12CC[C@H](O)C[C@@]1(O)CC[C@@H]1[C@@H]2CC[C@]2(C)[C@@H](C3=CC(=O)OC3)CC[C@]12O [Periplogenin]")
1
>>> class_label("O=c1ccc2cc3ccoc3c(O)c2o1 [Xanthotoxol]")
0
>>> class_label("CC(C)[C@]12O[C@H]1[C@@H]1O[C@@]13[C@@]1(C)CCC4=C(COC4=O)[C@@H]1C[C@@H]1O[C@@]13C2=O [Triptonide]")
1
>>> class_label("O=P1(NCCCl)OCCCN1CCCl (stereo not drawn) [Ifosfamide]")
0
>>> class_label("Cn1c(CCCC(=O)O)nc2cc(N(CCCl)CCCl)ccc21 [Bendamustine HCL]")
1
